Every entry's value here was drawn from paper PMC4734651.

# ASSAYED_TARGET: TrkA (Homo sapiens, UniProt P04629)
# Sequence (P04629 33-796): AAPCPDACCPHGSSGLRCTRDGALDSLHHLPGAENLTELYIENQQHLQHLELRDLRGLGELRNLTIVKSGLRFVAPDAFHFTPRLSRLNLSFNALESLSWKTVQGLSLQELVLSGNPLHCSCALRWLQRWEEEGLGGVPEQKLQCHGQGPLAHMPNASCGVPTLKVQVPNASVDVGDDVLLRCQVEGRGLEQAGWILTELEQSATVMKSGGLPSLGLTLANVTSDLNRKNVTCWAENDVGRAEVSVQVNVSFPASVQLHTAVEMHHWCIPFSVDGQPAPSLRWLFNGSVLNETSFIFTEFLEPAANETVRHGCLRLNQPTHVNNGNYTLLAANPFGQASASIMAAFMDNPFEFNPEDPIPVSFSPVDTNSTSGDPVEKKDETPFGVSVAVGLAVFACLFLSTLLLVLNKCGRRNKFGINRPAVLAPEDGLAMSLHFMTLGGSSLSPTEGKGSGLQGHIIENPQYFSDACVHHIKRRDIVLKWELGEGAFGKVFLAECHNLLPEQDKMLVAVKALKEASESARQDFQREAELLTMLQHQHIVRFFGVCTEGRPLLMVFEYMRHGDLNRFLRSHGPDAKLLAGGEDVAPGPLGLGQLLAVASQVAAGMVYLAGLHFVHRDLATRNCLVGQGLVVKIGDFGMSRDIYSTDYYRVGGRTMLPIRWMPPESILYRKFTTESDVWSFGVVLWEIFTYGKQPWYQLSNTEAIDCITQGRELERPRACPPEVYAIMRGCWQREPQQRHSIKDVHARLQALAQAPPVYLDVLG
# PROTOCOL_DESCRIPTION: TrkA biochemical screening assay
# CONDITIONS: qualitative statement
QUANTITY_KIND: TrkA activity (in words)

INSERT INTO measurements (compound, reported_result) VALUES
  ('CC(C)(C)c1cc(NC(=O)Nc2cccc(Oc3cncc(-c4ccsc4)n3)c2)on1 [Compound 14]', 'relatively inactive'),
  ('Cn1nc(C(C)(C)C)cc1NC(=O)Nc1cccc(Oc2cncc(-c3ccsc3)n2)c1 [Compound 16]', 'relatively inactive'),
  ('CC(C)(C)c1ccc(NC(=O)Nc2cccc(Oc3cncc(-c4ccsc4)n3)c2)cc1 [Compound 13]', 'relatively inactive');
